The values you see were collected from patent US20250263753A1.

# pIC50 per entry
- target_system: PI3Kα (His-PIK3CA/PIK3R1, p110 alpha/p85 alpha) (Homo sapiens (Human), UniProt P42336)
- Sequence (P42336 whole entry, species assumed): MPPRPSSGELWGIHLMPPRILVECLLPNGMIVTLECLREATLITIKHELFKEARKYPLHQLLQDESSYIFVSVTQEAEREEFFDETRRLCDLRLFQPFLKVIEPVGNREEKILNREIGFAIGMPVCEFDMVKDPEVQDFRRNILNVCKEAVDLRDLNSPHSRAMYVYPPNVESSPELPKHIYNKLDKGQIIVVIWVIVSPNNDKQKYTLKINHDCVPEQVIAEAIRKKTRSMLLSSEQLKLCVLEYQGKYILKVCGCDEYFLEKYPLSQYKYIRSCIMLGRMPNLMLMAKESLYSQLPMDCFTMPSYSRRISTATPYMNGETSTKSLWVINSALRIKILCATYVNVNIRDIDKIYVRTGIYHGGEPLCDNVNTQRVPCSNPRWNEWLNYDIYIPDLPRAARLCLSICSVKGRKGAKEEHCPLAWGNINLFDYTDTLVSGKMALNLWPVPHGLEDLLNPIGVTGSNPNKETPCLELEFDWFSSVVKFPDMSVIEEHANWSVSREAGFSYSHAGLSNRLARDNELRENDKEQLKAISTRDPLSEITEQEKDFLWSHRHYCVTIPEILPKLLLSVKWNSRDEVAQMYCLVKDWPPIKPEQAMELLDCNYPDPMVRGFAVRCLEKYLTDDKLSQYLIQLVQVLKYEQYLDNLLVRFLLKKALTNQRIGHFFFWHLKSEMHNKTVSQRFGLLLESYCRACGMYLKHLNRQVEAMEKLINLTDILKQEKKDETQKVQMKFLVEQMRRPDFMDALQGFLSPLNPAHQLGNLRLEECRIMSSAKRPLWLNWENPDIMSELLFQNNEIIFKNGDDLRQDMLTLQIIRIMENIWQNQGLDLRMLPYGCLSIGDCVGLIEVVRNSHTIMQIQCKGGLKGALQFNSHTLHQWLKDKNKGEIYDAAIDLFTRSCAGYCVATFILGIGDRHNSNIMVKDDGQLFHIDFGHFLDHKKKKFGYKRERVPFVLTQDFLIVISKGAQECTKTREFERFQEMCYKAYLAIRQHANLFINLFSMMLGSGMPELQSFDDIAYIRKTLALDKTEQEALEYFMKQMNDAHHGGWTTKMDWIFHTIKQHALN
- Sequence (P27986 whole entry partner, species assumed): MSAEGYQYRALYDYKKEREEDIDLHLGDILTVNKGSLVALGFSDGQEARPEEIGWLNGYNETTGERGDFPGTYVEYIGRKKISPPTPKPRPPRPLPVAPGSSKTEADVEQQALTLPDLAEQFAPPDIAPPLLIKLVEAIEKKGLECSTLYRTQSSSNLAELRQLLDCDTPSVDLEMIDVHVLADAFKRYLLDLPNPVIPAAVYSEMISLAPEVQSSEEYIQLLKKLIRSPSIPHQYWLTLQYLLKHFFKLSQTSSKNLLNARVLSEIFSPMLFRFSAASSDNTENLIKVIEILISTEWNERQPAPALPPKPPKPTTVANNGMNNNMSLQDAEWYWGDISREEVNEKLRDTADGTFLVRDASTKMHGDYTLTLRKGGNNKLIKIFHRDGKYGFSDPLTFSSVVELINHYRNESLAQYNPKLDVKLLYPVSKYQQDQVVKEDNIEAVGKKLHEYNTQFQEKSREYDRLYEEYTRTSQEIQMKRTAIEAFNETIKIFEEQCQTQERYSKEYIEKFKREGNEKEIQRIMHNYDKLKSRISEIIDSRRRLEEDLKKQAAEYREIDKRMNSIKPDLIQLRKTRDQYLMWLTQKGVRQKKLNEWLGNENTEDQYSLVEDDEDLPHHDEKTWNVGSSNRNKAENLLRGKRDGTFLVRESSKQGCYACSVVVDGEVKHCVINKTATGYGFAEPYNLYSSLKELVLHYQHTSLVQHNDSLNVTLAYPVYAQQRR
- measurement_protocol: PI3Kα biochemical assay (HTRF/FRET probe)
- Assay type: binding
- assay_conditions: class symbol
pIC50: −log10 of the molar value.

Before answering, review these 5 worked examples.
compound: Cc1cc(-c2cnn(C)c2)ncc1Nc1ncc2c(n1)N(C13CC(F)(C1)C3)C(=O)C21CC1 [Compound 75]
pIC50: 6.00 to 7.00
--
compound: Cc1cc2ncccc2cc1Nc1ncc2c(n1)n([C@H]1C[C@@H]3CC[C@H]1C3)c(=O)n2C [Compound 44]
pIC50: 7.00 to 8.00
--
compound: Cc1cc2c(cc1Nc1ncc3c(n1)N(C14CC(F)(C1)C4)C(=O)C31CC1)OCO2 [Compound 76]
pIC50: ≤ 6.00
--
compound: Cc1cc2ncnn2cc1Nc1ncc2c(C)nn(C34CC(C3)C4)c2n1 [Compound 47]
pIC50: ≤ 6.00
--
compound: COC12CCC(n3c(=O)n(C)c4cnc(Nc5cc6nsnc6cc5C)nc43)(C1)C2 [Compound 30]
pIC50: 6.00 to 7.00

Proceed to the following item.
Lookup result for Cc1cc2nccnc2cc1Nc1ncc2c(n1)N(C13CCC(O)(CC1)C3)C(=O)C21CC1 [Compound 67] ; measured pIC50: 7.00 to 8.00

###

- target_system: UniProt:P78527
- measurement_protocol: DNA-PK biochemical assay (Reaction Biology HotSpot kinase assay, 10 μM ATP)
- assay_conditions: read-out: DNA-PK HotSpot 10 μM ATP IC50, numeric value
- Procedure: DNA-PK Biochemical Assay Using Reaction Biology's HotSpot Kinase Assay Protocol: Reagent: Base Reaction buffer; 20 mM Hepes (pH 7.5), 10 mM MgCl2, 1 mM EGTA, 0.01% Brij35, 0.02 mg/ml BSA, 0.1 mM Na3VO4, 2 mM DTT, 1% DMSO Required cofactors are added individually to each kinase reaction. Reaction Procedure: 1. Prepare substrate in freshly prepared Reaction Buffer; 2. Deliver any required cofactors to the substrate solution above; 3. Deliver kinase into the substrate solution and gently mix; 4. […]
pIC50: −log10 of the molar value.
readout_label: pIC50

1. Cc1cc2ncnn2cc1Nc1ncc2c(n1)n(C13CCC(O)(CC1)C3)c(=O)n2C [Compound 1]
2. Cc1cc2ncnn2cc1Nc1ncc2c(n1)n(C13CCC(O)(CC1)CC3)c(=O)n2C [Compound 78]
Query :: Two entries are listed, 1 and 2 . Which one carries the higher pIC50? Your answer should be the label attached to the chosen record.
Result :: 1

###

- target_system: PI3Kδ (His-PIK3CD/PIK3R1, p110 delta/p85 alpha) (Homo sapiens (Human), UniProt O00329)
- Sequence (O00329 whole entry, species assumed, one chain of several): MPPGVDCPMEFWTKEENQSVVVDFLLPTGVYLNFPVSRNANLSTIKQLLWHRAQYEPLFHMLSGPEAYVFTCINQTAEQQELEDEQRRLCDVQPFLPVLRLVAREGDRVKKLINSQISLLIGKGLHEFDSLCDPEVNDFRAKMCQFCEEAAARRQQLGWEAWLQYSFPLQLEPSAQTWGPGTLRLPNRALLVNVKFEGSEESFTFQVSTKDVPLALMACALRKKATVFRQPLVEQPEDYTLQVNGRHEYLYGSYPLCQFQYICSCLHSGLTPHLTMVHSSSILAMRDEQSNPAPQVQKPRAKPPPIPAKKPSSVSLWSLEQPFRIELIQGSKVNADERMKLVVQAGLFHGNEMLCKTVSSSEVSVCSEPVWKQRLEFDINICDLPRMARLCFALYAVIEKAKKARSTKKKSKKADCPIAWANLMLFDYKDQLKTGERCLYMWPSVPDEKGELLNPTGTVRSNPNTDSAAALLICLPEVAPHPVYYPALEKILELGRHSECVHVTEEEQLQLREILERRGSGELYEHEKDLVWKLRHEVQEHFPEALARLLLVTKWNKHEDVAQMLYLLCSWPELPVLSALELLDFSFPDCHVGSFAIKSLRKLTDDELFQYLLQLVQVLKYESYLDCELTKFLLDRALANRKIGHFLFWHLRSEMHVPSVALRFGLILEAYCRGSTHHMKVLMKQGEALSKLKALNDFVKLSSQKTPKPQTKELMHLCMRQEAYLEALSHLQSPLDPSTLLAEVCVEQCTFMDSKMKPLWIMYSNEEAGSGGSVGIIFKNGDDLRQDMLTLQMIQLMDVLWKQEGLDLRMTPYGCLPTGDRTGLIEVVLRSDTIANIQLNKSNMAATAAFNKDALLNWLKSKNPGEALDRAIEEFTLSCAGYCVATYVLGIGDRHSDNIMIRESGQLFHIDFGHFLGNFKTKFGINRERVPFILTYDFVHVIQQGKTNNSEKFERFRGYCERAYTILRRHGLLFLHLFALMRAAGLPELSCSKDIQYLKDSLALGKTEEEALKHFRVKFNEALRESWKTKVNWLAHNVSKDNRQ
- measurement_protocol: PI3Kδ biochemical assay (HTRF/FRET probe)
- Assay type: binding
- assay_conditions: class symbol
pIC50: −log10 of the molar value.
Each entry below carries its recorded pIC50.

smiles: Cc1cc2nsnc2cc1Nc1ncc2c(n1)n(C13CC(F)(C1)C3)c(=O)n2C
target_system: PI3Kδ (His-PIK3CD/PIK3R1, p110 delta/p85 alpha) (Homo sapiens (Human), UniProt O00329)
readout_label: pIC50
recorded_result: ≤ 6.00
//
smiles: Cc1cc2nsnc2cc1Nc1ncc2c(n1)N(C13CC(F)(C1)C3)C(=O)C21CC1
target_system: PI3Kδ (His-PIK3CD/PIK3R1, p110 delta/p85 alpha) (Homo sapiens (Human), UniProt O00329)
readout_label: pIC50
recorded_result: ≤ 6.00

Entry `Cc1cc2ncnn2cc1Nc1ncc2c(n1)n(C13CC(CC#N)(C1)C3)c(=O)n2C` , tested on PI3Kδ (His-PIK3CD/PIK3R1, p110 delta/p85 alpha) (Homo sapiens (Human), UniProt O00329), has a reported pIC50 of ≤ 6.00

For the compound `Cc1cc2nccnc2cc1Nc1ncc2c(C)nn(C34CC(C3)C4)c2n1` , the measured pIC50 on PI3Kδ (His-PIK3CD/PIK3R1, p110 delta/p85 alpha) (Homo sapiens (Human), UniProt O00329) was 6.00 to 7.00

Form: item `Cc1cc2ncnn2cc1Nc1ncc2c(n1)n(C13CCC(O)(CC1)CC3)c(=O)n2C` ; test system PI3Kδ (His-PIK3CD/PIK3R1, p110 delta/p85 alpha) (Homo sapiens (Human), UniProt O00329); pIC50: 6.00 to 7.00

Reported PI3Kδ (His-PIK3CD/PIK3R1, p110 delta/p85 alpha) (Homo sapiens (Human), UniProt O00329) pIC50 for item `Cc1cc2nsnc2cc1Nc1ncc2c(n1)N(C13CCC(O)(CC1)C3)CC(=O)N2C` was 6.00 to 7.00

Reading of pIC50 for `COC12CCC(N3CC(=O)N(C)c4cnc(Nc5cc6cccnc6cc5C)nc43)(CC1)C2` with PI3Kδ (His-PIK3CD/PIK3R1, p110 delta/p85 alpha) (Homo sapiens (Human), UniProt O00329): 6.00 to 7.00

`Cc1cc2nccnc2cc1Nc1ncc2c(n1)n(C13CCC(O)(CC1)C3)c(=S)n2C` tested on PI3Kδ (His-PIK3CD/PIK3R1, p110 delta/p85 alpha) (Homo sapiens (Human), UniProt O00329) gave pIC50: 7.00 to 8.00

pIC50 on PI3Kδ (His-PIK3CD/PIK3R1, p110 delta/p85 alpha) (Homo sapiens (Human), UniProt O00329) for `Cc1cc2ncccc2cc1Nc1ncc2c(n1)n(C13CC(F)(C1)C3)c(=O)n2C` is ≤ 6.00

Entry `Cc1cc2ncccc2cc1Nc1ncc2c(n1)N(C13CCC(O)(CC1)C3)CC(=O)N2C` , PI3Kδ (His-PIK3CD/PIK3R1, p110 delta/p85 alpha) (Homo sapiens (Human), UniProt O00329) data, pIC50 value: 7.00 to 8.00

Note to self: pIC50 of `Cc1cc(-c2cnn(C)c2)c(F)cc1Nc1ncc2c(n1)n(C13CC(F)(C1)C3)c(=O)n2C` with PI3Kδ (His-PIK3CD/PIK3R1, p110 delta/p85 alpha) (Homo sapiens (Human), UniProt O00329) was ≤ 6.00

// pIC50 (PI3Kδ (His-PIK3CD/PIK3R1, p110 delta/p85 alpha) (Homo sapiens (Human), UniProt O00329)) for `Cc1cc2ncnn2cc1Nc1ncc2c(n1)n(C13CCC(O)(CC1)C3)c(=O)n2C` = ≤ 6.00

Reading of pIC50 for `Cc1cc2nccnc2cc1Nc1ncc2c(n1)N(C13CC(F)(C1)C3)C(=O)C21CC1` with PI3Kδ (His-PIK3CD/PIK3R1, p110 delta/p85 alpha) (Homo sapiens (Human), UniProt O00329): ≤ 6.00

# `Cc1cc2nccnc2cc1Nc1ncc2c(n1)N(C13CCC(O)(CC1)C3)CC(=O)N2C` with PI3Kδ (His-PIK3CD/PIK3R1, p110 delta/p85 alpha) (Homo sapiens (Human), UniProt O00329): pIC50 is 6.00 to 7.00

pIC50 value, target or system PI3Kδ (His-PIK3CD/PIK3R1, p110 delta/p85 alpha) (Homo sapiens (Human), UniProt O00329), for `Cc1cc2c(cc1Nc1ncc3c(n1)n(C14CC(CC#N)(C1)C4)c(=O)n3C)OCO2` : ≤ 6.00

Summary line: `Cc1cc(-c2cnn(C)c2)c(F)cc1Nc1ncc2c(n1)n(C13CCC(O)(CC1)C3)c(=O)n2C` , PI3Kδ (His-PIK3CD/PIK3R1, p110 delta/p85 alpha) (Homo sapiens (Human), UniProt O00329), reported pIC50 = ≤ 6.00

Reported PI3Kδ (His-PIK3CD/PIK3R1, p110 delta/p85 alpha) (Homo sapiens (Human), UniProt O00329) pIC50 for item `Cc1cc2ncccc2cc1Nc1ncc2c(n1)n([C@H]1C[C@@H]3CC[C@H]1C3)c(=O)n2C` was 6.00 to 7.00

`Cc1cc2ncnn2cc1Nc1ncc2c(n1)N(C13CC(F)(C1)C3)CC(=O)N2C` on PI3Kδ (His-PIK3CD/PIK3R1, p110 delta/p85 alpha) (Homo sapiens (Human), UniProt O00329) gives pIC50 = ≤ 6.00

Reading of pIC50 for `Cc1cc(-c2cnco2)c(F)cc1Nc1ncc2c(n1)n(C13CCC(O)(CC1)C3)c(=O)n2C` with PI3Kδ (His-PIK3CD/PIK3R1, p110 delta/p85 alpha) (Homo sapiens (Human), UniProt O00329): ≤ 6.00

Entry `Cc1cc2nsnc2cc1Nc1ncc2c(n1)n(C13CCC(O)(CC1)C3)c(=O)n2C` under PI3Kδ (His-PIK3CD/PIK3R1, p110 delta/p85 alpha) (Homo sapiens (Human), UniProt O00329) had pIC50 of ≤ 6.00

Measured pIC50 for this entry `Cc1cc(-c2cnco2)ncc1Nc1ncc2c(n1)N(C13CC(F)(C1)C3)C(=O)C21CC1` on PI3Kδ (His-PIK3CD/PIK3R1, p110 delta/p85 alpha) (Homo sapiens (Human), UniProt O00329): ≤ 6.00

Value sought: pIC50, system PI3Kδ (His-PIK3CD/PIK3R1, p110 delta/p85 alpha) (Homo sapiens (Human), UniProt O00329), item `Cc1cc2c(cc1Nc1ncc3c(n1)n(C14CCC(O)(CC1)CC4)c(=O)n3C)OCO2` . Result: ≤ 6.00

With PI3Kδ (His-PIK3CD/PIK3R1, p110 delta/p85 alpha) (Homo sapiens (Human), UniProt O00329) as the test system, `Cc1cc2nsnc2cc1Nc1ncc2c(C)nn(C34CC(C3)C4)c2n1` showed pIC50 of ≤ 6.00

# `Cc1cc2c(cc1Nc1ncc3c(n1)n(C14CCC(C#N)(CC1)CC4)c(=O)n3C)OCO2` with PI3Kδ (His-PIK3CD/PIK3R1, p110 delta/p85 alpha) (Homo sapiens (Human), UniProt O00329): pIC50 is ≤ 6.00

Value (pIC50, PI3Kδ (His-PIK3CD/PIK3R1, p110 delta/p85 alpha) (Homo sapiens (Human), UniProt O00329)) for record `Cc1cc2ncccc2cc1Nc1ncc2c(n1)N(C13CC(F)(C1)C3)CC(=O)N2C` = 6.00 to 7.00

The observed pIC50 for `Cc1cc2c(cc1Nc1ncc3c(n1)n(C14CCC(O)(CC1)C4)c(=O)n3C)OCCO2` when tested with PI3Kδ (His-PIK3CD/PIK3R1, p110 delta/p85 alpha) (Homo sapiens (Human), UniProt O00329) stands at ≤ 6.00

Recorded pIC50 for `Cc1cc2ncnn2cc1Nc1ncc2c(n1)n([C@H]1C[C@@H]3CC[C@H]1C3)c(=O)n2C` on PI3Kδ (His-PIK3CD/PIK3R1, p110 delta/p85 alpha) (Homo sapiens (Human), UniProt O00329) was ≤ 6.00
